Please respond with reported self-cleavage for every item in the list.
B1: OR4K15 (parent)
chain: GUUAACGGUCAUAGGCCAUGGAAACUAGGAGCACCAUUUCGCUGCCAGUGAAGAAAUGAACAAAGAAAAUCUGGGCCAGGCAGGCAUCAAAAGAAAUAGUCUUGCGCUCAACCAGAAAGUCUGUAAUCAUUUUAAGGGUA

- Variants of: B1
- assay: self-cleavage, relative activity (ratio to wild type); higher = more cleavage; in vitro, sequencing; the parent is a self-cleaving ribozyme
Give bare numbers.

| construct sequence | self-cleavage |
| --- | --- |
| GUUAACGGUCAUAGGCCAUGGAAGCUAGGAGCACCAUUCCGCUGCCAGUGAAGAAAUGAACAAAGAAAAUCUGGGCCAGGCAGGCAUCAAAAGAAAUAGUCUUGCGCUCAACCAGAAAGUCUGUAAUCAUUUUAAGGGUA | 1.35 |

Could you report self-cleavage for every entry in the following list?
1. GUUAACGGUCAUAGGCCAAGGAAACUAGGAGCACCAUUUCGCUGCCAGUGAAGAAAUGAACAAAGAAAAUCUGGGCUAGGCAGGCAUCAAAAGAAAUAGUCUUGCGCUCAACCAGAAAGUCUGUAAUCAUUUUAAGGGUA
2. GUUAAUGGUCAUAGGCCAUGGAAACUAGGAGCACCAUUUCGCUGCCAGUGAAGAAAUGAACAAAGAAAAUCUGGGCCAGGCAGGCAUCAAAAGAAAUAGUCUUGCGCUCAACCAGAUAGUCUGUAAUCAUUUUAAGGGUA
3. GUUAACGGUCAUAGGCCAUGGAAACUAGGAGCACCAUUUCGCUGCCAGUGAAGAAAUGAACAAAGAAAAUCUGGGCCAGGCAGGCAUCAGAAGAAAUAGUCUUGCGCUCAACCAGAAAGUCUGUAAUCAUUUUAAGGGUU
4. GUUAACGGUCAUAGGCCAUGGAAACUAGAAGCACCAUUUCGCUGCCAGUGAAGAAAUGGACAAAGAAAAUCUGGGCCAGGCAGGCAUCAAAAGAAAUAGUCUUGCGCUCAACCAGAAAGUCUGUAAUCAUUUUAAGGGUA
5. GUUAACGGUCAUAGGCCAUGGAAACUAGGAGCACCAUUUCGCUGCCAGUGAAGAAAUGAACAGAGAAAAUCUGGGCCUGGCAGGCAUCAAAAGAAAUAGUCUUGCGCUCAACCAGAAAGUCUGUAAUCAUUUUAAGGGUA

Given back:
1. 1.25
2. 1.1
3. 0.74
4. 1.26
5. 0.22

Could you report self-cleavage for every entry in the following list?
1. GUUAACGGUCAUAGGCCAUGGAAACUAGGAGCACCAUUUCGCUGCCAGUGAAGAAAUGAACAAAGAAAAUCUGGGCCAGGCGGGCAUCAAAAGAAAUAGUCUUGCGCUCAACCAGAAAGUCUGUAAACAUUUUAAGGGUA
2. GUUAACGGUCAUAGGCCAUGGAAACUAGGAGCACCAUUUCGCUGCCAGUGAAGAAAUGAACAACGAAAAUCUGGGCCAGGCAGGCAUCAAAAGAAGUAGUCUUGCGCUCAACCAGAAAGUCUGUAAUCAUUUUAAGGGUA

Given back:
0.58
1.27

Could you report self-cleavage for every entry in the following list?
1. GUAAACGGUCAUAGGCCAUGGAAACUAGGAGCACCAUUUCGCUGCCAGUGAAGAAACGAACAAAGAAAAUCUGGGCCAGGCAGGCAUCAAAAGAAAUAGUCUUGCGCUCAACCAGAAAGUCUGUAAUCAUUUUAAGGGUA
2. GUUAACGGUCAUAGGCCAUGGAGACUAGGAGCACCAUUUCGCUGCCAGUGAAGAAAUGAACAAAGAAAAUCUGGGCCAGGCAGGCGUCAAAAGAAAUAGUCUUGCGCUCAACCAGAAAGUCUGUAAUCAUUUUAAGGGUA
3. GUUAACGGUCAUAGGCCAUGGAAGCUAGGAGCACCAUUUCGCUGCCAGUGAAGAGAUGAACAAAGAAAAUCUGGGCCAGGCAGGCAUCAAAAGAAAUAGUCUUGCGCUCAACCAGAAAGUCUGUAAUCAUUUUAAGGGUA
4. GUUAACGGUCAUAGGCCAAGGAAACUAGGAGCACCAUUUCGCUGCCAGUGAAGAGAUGAACAAAGAAAAUCUGGGCCAGGCAGGCAUCAAAAGAAAUAGUCUUGCGCUCAACCAGAAAGUCUGUAAUCAUUUUAAGGGUA

Given back:
1.14
0.99
0.67
1.79

Could you report self-cleavage for every entry in the following list?
1. GUUAACGGACAUAGGCCAUGGAAACUAGGAGCACCAUUUCGCUGCCAGUGAAGAAAUGAACAAAGAAAAUCUGGGCCAGGCAGGCACCAAAAGAAAUAGUCUUGCGCUCAACCAGAAAGUCUGUAAUCAUUUUAAGGGUA
2. GUUAACGGUCAUAGGCCAUGGAAACUAGGAGCACCAUUUCGCUGCCAGUGAAGAAAUGAACAAAGGAAAUCUGGGCCAGGCAGGCAACAAAAGAAAUAGUCUUGCGCUCAACCAGAAAGUCUGUAAUCAUUUUAAGGGUA
3. GUUAACGGUCAUAGGCCAUGGAAACUAGGAGCACCAUUUCGCUGCCAGUGAUGAAAUGAACAAAGAAAAUCUGGGCCAGGCAGGCAUCAAAAGAAAUAGUCUUGCGCUCAACCAGAAAGUCUGUAAUCAUUUUUAGGGUA
4. GUUAACGGUCAUAAGCCAUGGAAACUAGGAGCACCAUUUCGCUGCCAGUGAAGAAAUGAACAAAGAAAAUCUGGGCCAGGCAGGCAUCAAAAGAAAUAGUCUUGCACUCAACCAGAAAGUCUGUAAUCAUUUUAAGGGUA

Given back:
0.85
1.15
1.41
0.02

Where these numbers come from: the RNAGym collection of RNA variant scans (doi:10.7554/elife.90254)
